Experiment Notes: Volume of distribution at steady state in cynomolgus monkey at 1 mg/kg, iv or 2 mg/kg, po
Assay type: ADME, organism-based, Macaca fascicularis
Test Context: in vivo, read-out: VDss
Measured Property: Vd (L/kg)
Entry rule: numbers only, all in L/kg.

Q: Query (compound): CNC[C@H](CC1CCCCC1)NC(=O)N1CCC[C@@H]([C@@](O)(CCCCOC)c2cccc(Cl)c2)C1 ; field requested: Vd
Result: 6.1

---

Experiment Notes: Tmax in cynomolgus monkey at 1 mg/kg, po
Assay type: ADME, organism-based, Macaca fascicularis
Design: dose 1 mg/kg, route oral
Test Context: in vivo
Measured Property: Tmax (h)
Field format: number, assumed h, no unit text.

Q: Recorded Tmax of CNC[C@H](CC1CCCCC1)NC(=O)N1CCC[C@@H]([C@@H](OCCNC(=O)OC)c2cccc(Cl)c2)C1 , please.
Result: 1
